- study.system: hNLRP3 (Homo sapiens, UniProt Q96P20)
- Construct: THP-1 cells were purchased from the American Type Culture Collection
- Sequence (Q96P20 whole entry): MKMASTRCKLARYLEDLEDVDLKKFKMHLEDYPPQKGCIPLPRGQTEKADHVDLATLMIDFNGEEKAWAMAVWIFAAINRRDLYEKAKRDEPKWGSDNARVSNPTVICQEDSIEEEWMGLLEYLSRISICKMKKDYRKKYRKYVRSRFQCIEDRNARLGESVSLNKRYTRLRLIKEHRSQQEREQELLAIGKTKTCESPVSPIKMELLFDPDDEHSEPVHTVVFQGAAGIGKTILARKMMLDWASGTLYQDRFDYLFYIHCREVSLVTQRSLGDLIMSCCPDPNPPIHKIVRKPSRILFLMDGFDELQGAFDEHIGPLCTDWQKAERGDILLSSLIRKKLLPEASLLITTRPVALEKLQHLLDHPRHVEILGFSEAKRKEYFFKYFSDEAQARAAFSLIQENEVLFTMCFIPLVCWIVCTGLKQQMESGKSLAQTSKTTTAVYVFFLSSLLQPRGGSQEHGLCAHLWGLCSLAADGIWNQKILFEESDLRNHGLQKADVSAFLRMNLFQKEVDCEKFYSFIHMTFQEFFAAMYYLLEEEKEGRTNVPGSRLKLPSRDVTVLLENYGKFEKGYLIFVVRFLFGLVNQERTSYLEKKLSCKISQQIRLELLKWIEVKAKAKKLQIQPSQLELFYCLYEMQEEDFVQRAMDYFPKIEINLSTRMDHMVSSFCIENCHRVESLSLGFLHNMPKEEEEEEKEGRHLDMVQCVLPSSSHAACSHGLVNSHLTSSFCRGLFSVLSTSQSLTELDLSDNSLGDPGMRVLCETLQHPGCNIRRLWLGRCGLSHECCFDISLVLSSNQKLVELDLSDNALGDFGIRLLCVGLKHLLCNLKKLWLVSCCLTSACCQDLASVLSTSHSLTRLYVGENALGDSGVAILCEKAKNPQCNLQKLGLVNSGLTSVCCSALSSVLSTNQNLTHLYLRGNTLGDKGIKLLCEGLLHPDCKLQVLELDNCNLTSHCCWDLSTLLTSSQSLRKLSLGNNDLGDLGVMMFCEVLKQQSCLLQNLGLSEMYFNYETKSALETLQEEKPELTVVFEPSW
- test.description: Measurement of IL-1β production in PMA-differentiated THP-1 cells (hNLRP3 agonist; ELISA, alternative and hTRF procedures)
pEC50: −log10 of the molar value.
Label condition not met if pEC50 falls below 5; label condition met in every other case.

{"compound": "Nc1nc2cc(-c3ccsc3)ccc2c2[nH]c(CN3CCCC3=O)nc12", "category": "condition met"}
{"compound": "CNCc1nc2c(N)nc3cc(-n4cccn4)ccc3c2[nH]1", "category": "condition met"}
{"compound": "CCN(Cc1nc2c(N)nc3cc(-c4cc[nH]n4)ccc3c2[nH]1)C(=O)c1cccn1C", "category": "condition met"}
{"compound": "CC(=O)N(C)Cc1nc2c(N)nc3cc(-c4cc[nH]n4)ccc3c2[nH]1", "category": "condition met"}
{"compound": "CCN(Cc1nc2c(N)nc3cc(-n4cccn4)ccc3c2[nH]1)C(N)=O", "category": "condition met"}

Input line: Could you tell me if the measured pEC50 of CN(C)C(=O)CCCn1c(CN2CCCC2=O)nc2c(N)nc3cc(Cl)ccc3c21 reaches 5 or more?
Output line: condition not met

Input line: Has CCN(Cc1nc2c(N)nc3cc(N4CCNC4=O)ccc3c2n1Cc1ccc(OC)cc1)C(C)=O a recorded pEC50 greater than or equal to 5?
Output line: condition not met

Input line: Confirm if pEC50 reported for the compound CCCS(=O)(=O)N(CC)Cc1nc2c(N)nc3cc(-c4cc[nH]n4)ccc3c2[nH]1 is 5 or above.
Output line: condition met

Input line: Threshold query (pEC50 >= 5) on CCN(Cc1nc2c(N)nc3cc(-c4ncc[nH]4)ccc3c2[nH]1)C(=O)OC(C)(C)C
Output line: condition not met

Input line: Is it the case that Cc1cccc(-c2ccc3c(c2)nc(N)c2nc(CN4CCCC4=O)[nH]c23)c1 has pEC50 reaching or exceeding 5?
Output line: condition met

Input line: Does the reported pEC50 for CCN(Cc1nc2c(N)nc3cc(-c4cc[nH]n4)ccc3c2[nH]1)C(=O)CCc1ccccc1 fall at or above the 5 mark?
Output line: condition met

Input line: Check this compound for pEC50 at or above 5: CCN(Cc1nc2c(N)nc3cc(-c4cc[nH]n4)ccc3c2[nH]1)C(=O)c1ccc(Cl)cc1
Output line: condition met
